# method: chemical genetic growth profiling, strain panel (AID 1159580);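 also: tested at 20 µM; growth read once vehicle control cultures reached saturation at 30 °C; lower values mean less growth of the strain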
# experimental-context: S. cerevisiae deletion strains, growth OD, locus YOR184W, strain ser1
Among all 5,500 compounds or so, about 2,000 (36%) were called active. Not shown: some 18% with an inconclusive outcome. Rule as the data show it: active = normalized growth mostly below about 0.91 (no sharp cut-off); inconclusive = no clear call, values can overlap the other calls; inactive = mostly above about 0.92. The list shows a part of the results.
Valid outcomes are listed here; reply with one: Yes for active, No for inactive

Status in this test for NC(CSCSCC(N)C(=O)O)C(=O)O (configuration not stated) ?
No

Query CC(C)N(CCC(C(N)=O)(c1ccccc1)c1ccccn1)C(C)C (configuration not stated) next
No

Similarly, `CCN1C[C@]2(C)CC[C@H](OC)[C@]34C2[C@H](O)[C@]2(OCO[C@@]25C[C@H](OC)[C@H]2C[C@]3(O)C5[C@H]2O)C14` ?
No

Param item: `COc1cc(OC)c2c(=O)c(O)c(-c3ccc(OC)c(OC)c3)oc2c1`
Yes

Next: CC1CC[C@@]2(OC1)O[C@H]1CC3C4CC[C@@H]5C[C@@H](O)CC[C@]5(C)C4CC[C@]3(C)[C@H]1[C@@H]2C (some centres not stated)
No

Also check `O=c1cc(-c2ccc(O)cc2)oc2cc(O[C@@H]3O[C@H](CO)[C@@H](O)[C@H](O)[C@H]3O)cc(O)c12`
No

Okay, and CN[C@@H]1C(O)[C@@H](O[C@@H]2[C@@H](O)[C@H](O[C@H]3OC(CN)=CC[C@H]3N)[C@@H](N)C[C@H]2N)OC[C@]1(C)O (some centres not stated) ?
No

Can you handle `COc1ccc(-c2cc(=O)c3c(O)cc(O[C@H]4O[C@H](CO[C@@H]5O[C@@H](C)[C@H](O)[C@@H](O)[C@H]5O)[C@@H](O)[C@H](O)[C@H]4O)cc3o2)cc1` next?
No

Another compound to check: C[C@]12CCC3c4ccc(OS(=O)(=O)O)cc4CCC3C1CC[C@H]2O (some centres not stated)
No

Queued: `CNC(=O)Oc1cccc2c1OC(C)(C)O2`
No

Now consider `COc1cc(O)c2c(=O)c(O)c(-c3ccc(O)c(O)c3)oc2c1` .
No

// repeat for COc1ccc2c(c1)CCC1C2CCC2(C)C1C[C@@H](O)C2O (some centres not stated) and report
No

And then CCC1OC(=O)[C@H](C)C(=O)[C@H](C)[C@@H](OC2O[C@H](C)C[C@H](N(C)C)[C@H]2O)[C@](C)(OC)C2(CCCn3cnc(-c4cccnc4)c3)C[C@@H](C)C(=O)[C@H](C)[C@H]3N(C2)C(=O)O[C@]13C (some centres not stated) , what is it?
No

Another compound to look at: CO[C@@]1(NC(=O)C(C(=O)O)c2ccc(O)cc2)C(=O)N2C(C(=O)O)=C(CSc3nnnn3C)CO[C@@H]21 (some centres not stated)
No

Next: `CCCCCc1c2c(cc(O)c1C(=O)O)OC(=O)c1c(cc(OC)cc1C(=O)CCCC)O2`
No

Another compound to check: CC(CC(O)C1OC1(C)C)[C@@H]1CCC2(C)C3=CCC4C(C)(C)C(=O)CCC4(C)C3CC[C@@]12C (some centres not stated)
No

And what about the compound C[C@@H]1O[C@@H](OC[C@H]2OC(Oc3c(-c4ccc(OCCO)c(OCCO)c4)oc4cc(OCCO)cc(O)c4c3=O)[C@H](O)[C@@H](O)[C@@H]2O)[C@H](O)[C@H](O)[C@H]1O (some centres not stated) ?
No

Now consider CC1CCC2(OC1)OC1CC3C4CC[C@H]5C[C@@H](O)CC[C@]5(C)C4CC(=O)[C@]3(C)C1C2C (some centres not stated) and answer again.
No

Next: `C=C[C@H]1CN2CC[C@H]1C[C@@H]2[C@@H](OC(=O)OCC)c1ccnc2ccc(OC)cc12`
No

How about C[C@@H]1O[C@@H](OC[C@H]2OC(Oc3c(-c4ccc(O)c(O)c4)oc4cc(O)cc(O)c4c3=O)[C@H](O)[C@@H](O)[C@@H]2O)[C@H](O)[C@H](O)[C@H]1O (some centres not stated) ?
No

Proceed to C[C@@H]1CC[C@@]2(OC1)O[C@H]1CC3C4CC[C@H]5C[C@@H](O)CC[C@]5(C)C4CC[C@]3(C)[C@H]1[C@@H]2C (some centres not stated)
No

Now try CC(C1OC(C)(C)C(O)C1O)[C@@H]1CC[C@]2(C)C3=CCC4C(C)(C)C(=O)CC[C@]4(C)C3CC[C@@]12C (some centres not stated) .
Yes

Again, but for COc1ccc2c(c1)CCC1C2CC[C@@]2(C)C1CC[C@@H]2O (some centres not stated)
Yes

Same for NS(=O)(=O)c1cc(C2(O)NC(=O)c3ccccc32)ccc1Cl (configuration not stated)
No

Try this compound too: CNC(C)C(O)c1ccccc1 (configuration not stated)
No

Try CC12CCC3c4ccc(OCc5ccccc5)cc4CCC3C1C[C@@H](O)[C@@H]2O (some centres not stated) next.
Yes

Next up: C[C@@H]1CC[C@@]2(OC1)OC1CC3C4CC=C5C[C@@H](O)CC[C@]5(C)C4CC[C@]3(C)C1[C@@H]2C (some centres not stated)
No

Continue with `CN1C(C)(C)CCCC1(C)C`
No

Also CC1O[C@@H](Oc2c(-c3ccc(O)c(O)c3)oc3cc(O)cc(O)c3c2=O)[C@H](O)[C@H](O)[C@H]1O (some centres not stated) , if possible.
No

Same lookup for CC1CC[C@]2(NC1)O[C@H]1CC3C4CC[C@H]5C[C@@H](O)CC[C@]5(C)C4CC[C@]3(C)[C@H]1[C@@H]2C (some centres not stated) , please.
Yes

Same question, `CC[n+]1c(-c2ccccc2)c2cc(N)ccc2c2ccc(N)cc21` this time
Yes

Next: NC(=O)NCC(N)C(=O)O (configuration not stated)
No

And Oc1ccc2c(c1)OCC1(O)Cc3cc(O)c(O)cc3C21 (configuration not stated) ?
No

Now the compound CC(C)(C)NCC(O)c1cc(O)cc(O)c1 (configuration not stated)
No

For CC1CC[C@@]2(OC1)O[C@H]1CC3C4CC[C@@H]5CC(=O)CC[C@]5(C)C4CC[C@]3(C)[C@H]1[C@@H]2C (some centres not stated) then?
No

How about `COc1cccc2c(C)cc(=O)[nH]c12` ?
Yes

And what about the compound C[C@@H]1CC[C@@]2(NC1)O[C@H]1C[C@H]3C4CC=C5C[C@@H](O)CC[C@]5(C)C4CC[C@]3(C)C1[C@@H]2C (some centres not stated) ?
Yes
